Can you tell me IC50 for the items I'm about to list?
SYSTEM: CCR8 (Homo sapiens)
Sequence (P51685 whole entry, the tested form may be a part): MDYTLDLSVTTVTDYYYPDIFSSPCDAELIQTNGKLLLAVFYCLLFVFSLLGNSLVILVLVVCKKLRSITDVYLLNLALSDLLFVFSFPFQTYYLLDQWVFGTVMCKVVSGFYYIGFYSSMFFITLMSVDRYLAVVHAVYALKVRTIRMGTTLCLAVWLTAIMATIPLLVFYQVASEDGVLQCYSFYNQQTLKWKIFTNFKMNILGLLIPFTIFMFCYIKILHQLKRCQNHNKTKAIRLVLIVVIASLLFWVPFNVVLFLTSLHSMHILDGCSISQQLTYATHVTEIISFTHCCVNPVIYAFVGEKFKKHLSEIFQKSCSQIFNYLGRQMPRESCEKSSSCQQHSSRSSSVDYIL
EXPERIMENTAL PROTOCOL: Tango assay (Tango-CCR8-Gal4-CHO-K1 cells, CCL1-stimulated, ONE-Glo luminescence)
TEST PARAMETERS: Tango Assay IC50, Inhibition of CCR8 Tango cell in vitro
Structures can show the parent of a compound that is named as a salt.
One number for each entry, in nM.

Could I get IC50 for every one of these entries?
1. Cc1ccccc1C(=O)Nc1ccc(S(=O)(=O)NC(C)C2CCN(C(=O)OC(C)(C)C)C2)c2ccccc12 (stereo not shown)
2. Cc1cc(S(=O)(=O)N[C@H](C)C2CCNCC2)ccc1NC(=O)c1ccccc1 [Compound 166A, hydrochloride]
3. Cc1ccccc1NC(=O)c1ccc(S(=O)(=O)N[C@H](C)C2CCN(C)CC2)cc1C

Reply text:
1: 1100; 2: 99; 3: 366
